Numbers sourced from patent US10857155B2.

Tested on: H1048 cells
Assay: Cell viability assay (CellTiter-Glo), H1048 cells
Format: cell-based
Settings: Homo sapiens, NCI-H1048, 72 h; H1048, 1 μM, 3 days
Description: Molm-13 cells were cultivated in RPMI-1640 (10% FBS/1% pen-strep) and were plated in white walled 96-well plates at 20,000 cells/well. […] Cells were treated with compound at the indicated concentration or DMSO (control) and the cultures were incubated for 3 days at 37° C. and 5% CO2. […] Following a 10 min incubation with shaking, luminescence was measured using a Victor Wallac Luminometer.
Catalogue of molecules with associated viability at 1 µM
Your answer is read as %, so omit the unit and give the number.

These solved cases illustrate the format of a correct answer.
COc1ccc(CC(=O)NCc2ccc3c(c2)CN([C@H]2CCCC(=O)NC2=O)C3=O)cc1Cl [Compound 13] = 97.8
Cc1c(Cl)cccc1NC(=O)NCc1ccc2c(c1)CN([C@H]1CCCC(=O)NC1=O)C2=O [Compound 5] = 27.3
Cc1ccc(CCNC(=O)NCc2ccc3c(c2)CN([C@H]2CCCC(=O)NC2=O)C3=O)cc1Cl [Compound 19] = 8.26
Cc1ccc(NC(=O)NCc2ccc3c(c2)CN(C2CCCC(=O)NC2=O)C3=O)cc1 (stereo not drawn) [Compound 2] = 28.3
Cc1ccc(NC(=O)NCc2cc3c(cc2F)C(=O)N([C@H]2CCCC(=O)NC2=O)C3)cc1Cl [Compound 22] = 11.5
O=C1CCC[C@H](N2Cc3cc(CNC(=O)Nc4ccc(F)c(Cl)c4)ccc3C2=O)C(=O)N1 [Compound 6] = 45.7
Cc1ccc(CC(=O)NCc2ccc3c(c2)CN([C@H]2CCCC(=O)NC2=O)C3=O)cc1Cl [Compound 7] = 44.1
Cc1ccc(NC(=O)NCc2cccc3c2CN([C@H]2CCCC(=O)NC2=O)C3=O)cc1Cl [Compound 17] = 95.5
Cc1ccc(NC(=O)NCc2ccc3c(c2)CN([C@H]2CCCC(=O)NC2=O)C3=O)cc1Cl [Compound 1] = 8.39
Cc1ccc(NC(=O)NCc2ccc3c(c2)C(=O)N([C@H]2CCCC(=O)NC2=O)C3=O)cc1Cl [Compound 27] = 101

Form: molecule = Cc1ccc(N(C)C(=O)NCc2ccc3c(c2)CN([C@H]2CCCC(=O)NC2=O)C3=O)cc1Cl [Compound 21] ; viability at 1 µM = 95.5
